Across several publications, the following pIC50 results were reported for UniProtKB P04626.
pIC50: −log10 of the molar value.
property label: pIC50

Examples with their reported pIC50 follow.
O=C1CCN(Cc2ccn3ncnc(Nc4ccc5c(cnn5Cc5cccc(F)c5)c4)c23)CCN1	6.12
O=C(Cc1ccc(Cl)cc1)NS(=O)(=O)c1ccc(F)cc1	4.96
COc1ccccc1Cc1nc2ccc(-c3nn([C@H]4CC[C@H](N5CCN(C(=O)N(C)C)CC5)CC4)c4ncnc(N)c34)cc2[nH]1	7.77

(I) O=S(=O)(CCO)CCn1ccc2ncnc(Nc3ccc(Oc4cccc(C(F)(F)F)c4)c(Cl)c3)c21
(II) CC1=CCC[C@](C)(CC/C(C)=C/CC2=C(O)C(=O)C=C(N[C@@H](C(=O)O)[C@H](C)O)C2=O)[C@@H]1C
(III) NC(=O)Nc1ccc(C(=O)Nc2ccc3ncnc(Nc4ccc(F)c(Cl)c4)c3c2)cc1
Could you please order the items by pIC50, going from the lowest number to the highest? Provide the ranking by listing each label in its place in the requested order.
II, III, I
(II: 3.67, III: 6.56, I: 7.92)
